Numbers sourced from ChEMBL document CHEMBL2440064.

# Experiment summary: Half life in rat at 2 mg/kg, iv and 10 mg/kg, po
# Type: ADME, organism-based
# Measurement parameters: in vivo
Measurement kind: half-life

Consider the molecule C[C@@H](Sc1cc(-c2cnn(C3CCNCC3)c2)cnc1N)c1c(Cl)ccc(F)c1Cl . State its measured half-life. 342 min

----------
# Measured on: Platelet-derived growth factor receptor beta (Homo sapiens, UniProt P09619)
pIC50: −log10 of the molar value.
Measurement kind: pIC50

Report measured pIC50; entry is C[C@@H](Sc1cc(-c2cnn(C3CCNCC3)c2)cnc1N)c1c(Cl)ccc(F)c1Cl < 6.00

----------
# System: MCF7
# Experiment summary: Antiproliferative activity against human MCF7 cells after 72 hrs
# Measurement parameters: MCF7, 72 h
Measurement kind: pIC50
One number for each entry, as −log10 of the molar value.

> print(dat)
                                   compound  measurement.kind   val
1  C[C@@H](Sc1cc(-c2cnn(C3CCNCC3)c2)cnc1N)c1c(Cl)ccc(F)c1Cl             pIC50  4.94

// moving on: another record for pIC50
Give the reported pIC50 for this compound. C[C@@H](Oc1cc(-c2cnn(C3CCNCC3)c2)cnc1N)c1c(Cl)ccc(F)c1Cl [CRIZOTINIB] 5.02

----------
# Measured on: UniProt:P35968
# Sequence (P35968 whole entry): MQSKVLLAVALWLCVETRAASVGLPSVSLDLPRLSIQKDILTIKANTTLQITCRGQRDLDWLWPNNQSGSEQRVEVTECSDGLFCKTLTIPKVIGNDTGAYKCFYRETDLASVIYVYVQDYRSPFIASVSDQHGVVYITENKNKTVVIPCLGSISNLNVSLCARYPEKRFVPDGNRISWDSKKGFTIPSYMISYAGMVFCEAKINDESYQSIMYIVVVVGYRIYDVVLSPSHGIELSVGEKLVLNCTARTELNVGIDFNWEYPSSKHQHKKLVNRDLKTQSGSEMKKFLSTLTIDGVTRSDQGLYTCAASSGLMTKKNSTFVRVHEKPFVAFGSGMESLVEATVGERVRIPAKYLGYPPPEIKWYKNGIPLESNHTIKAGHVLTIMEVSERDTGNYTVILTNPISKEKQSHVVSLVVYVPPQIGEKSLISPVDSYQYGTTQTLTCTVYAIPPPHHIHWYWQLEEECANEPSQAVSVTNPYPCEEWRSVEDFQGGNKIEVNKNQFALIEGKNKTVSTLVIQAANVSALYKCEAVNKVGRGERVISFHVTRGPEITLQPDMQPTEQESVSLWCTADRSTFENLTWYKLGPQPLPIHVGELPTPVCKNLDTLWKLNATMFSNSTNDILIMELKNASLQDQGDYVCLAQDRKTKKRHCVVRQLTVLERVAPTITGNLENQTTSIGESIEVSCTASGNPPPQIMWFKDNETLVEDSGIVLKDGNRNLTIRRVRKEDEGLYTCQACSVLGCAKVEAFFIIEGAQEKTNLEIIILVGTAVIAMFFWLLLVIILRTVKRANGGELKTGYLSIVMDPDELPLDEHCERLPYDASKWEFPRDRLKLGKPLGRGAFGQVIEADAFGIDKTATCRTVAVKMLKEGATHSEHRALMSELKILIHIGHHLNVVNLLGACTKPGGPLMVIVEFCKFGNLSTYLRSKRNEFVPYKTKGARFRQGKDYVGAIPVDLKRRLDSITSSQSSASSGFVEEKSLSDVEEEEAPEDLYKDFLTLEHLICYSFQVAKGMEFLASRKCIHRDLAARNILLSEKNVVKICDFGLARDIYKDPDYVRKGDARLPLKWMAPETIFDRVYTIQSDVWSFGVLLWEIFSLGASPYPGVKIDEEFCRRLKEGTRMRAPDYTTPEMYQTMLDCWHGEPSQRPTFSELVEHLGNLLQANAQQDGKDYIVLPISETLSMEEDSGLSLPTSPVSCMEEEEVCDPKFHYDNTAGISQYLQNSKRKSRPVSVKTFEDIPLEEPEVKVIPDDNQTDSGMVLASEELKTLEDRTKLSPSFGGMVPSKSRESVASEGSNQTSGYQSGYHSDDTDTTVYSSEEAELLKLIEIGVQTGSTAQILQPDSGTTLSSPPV
Measurement kind: IC50

Fill in reported IC50 for this entry: C[C@@H](Sc1cc(-c2cnn(C3CCNCC3)c2)cnc1N)c1c(Cl)ccc(F)c1Cl > 1 µM

----------
# Experiment summary: Clearance in rat at 2 mg/kg, iv and 10 mg/kg, po
# Format: ADME, organism-based
# Measurement parameters: in vivo
Measurement kind: clearance (mL/min/kg)
One number for each entry, in mL/min/kg.

Please report the measured clearance for C[C@@H](Sc1cc(-c2cnn(C3CCNCC3)c2)cnc1N)c1c(Cl)ccc(F)c1Cl 53

----------
# Measured on: Ephrin type-A receptor 2 (Homo sapiens, UniProt P29317)
# Sequence (P29317 whole entry): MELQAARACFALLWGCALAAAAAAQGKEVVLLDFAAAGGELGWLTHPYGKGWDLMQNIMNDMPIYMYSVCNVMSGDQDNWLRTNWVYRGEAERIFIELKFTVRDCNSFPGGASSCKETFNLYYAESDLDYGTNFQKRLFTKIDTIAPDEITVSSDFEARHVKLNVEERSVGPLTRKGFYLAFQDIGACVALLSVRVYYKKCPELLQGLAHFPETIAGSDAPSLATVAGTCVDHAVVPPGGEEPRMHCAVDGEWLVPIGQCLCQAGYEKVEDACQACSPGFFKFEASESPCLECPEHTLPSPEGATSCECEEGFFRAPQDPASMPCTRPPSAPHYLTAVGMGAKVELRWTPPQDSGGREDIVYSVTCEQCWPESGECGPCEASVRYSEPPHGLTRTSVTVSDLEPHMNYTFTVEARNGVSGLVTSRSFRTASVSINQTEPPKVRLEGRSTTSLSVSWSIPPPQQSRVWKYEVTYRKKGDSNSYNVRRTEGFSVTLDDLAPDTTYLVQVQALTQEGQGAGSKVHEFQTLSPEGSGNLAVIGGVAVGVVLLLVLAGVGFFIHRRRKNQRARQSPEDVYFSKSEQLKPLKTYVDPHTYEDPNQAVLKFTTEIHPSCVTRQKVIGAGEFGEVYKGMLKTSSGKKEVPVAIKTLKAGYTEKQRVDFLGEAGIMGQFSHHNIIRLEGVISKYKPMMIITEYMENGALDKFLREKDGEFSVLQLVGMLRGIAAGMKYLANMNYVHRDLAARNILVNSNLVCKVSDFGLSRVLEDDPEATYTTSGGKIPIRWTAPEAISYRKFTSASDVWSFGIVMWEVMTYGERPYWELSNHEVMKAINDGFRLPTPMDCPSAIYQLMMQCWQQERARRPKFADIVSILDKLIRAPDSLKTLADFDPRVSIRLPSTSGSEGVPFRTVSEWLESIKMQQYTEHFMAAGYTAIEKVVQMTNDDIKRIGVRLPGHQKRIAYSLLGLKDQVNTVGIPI
Measurement kind: IC50

Report measured IC50; entry is C[C@@H](Sc1cc(-c2cnn(C3CCNCC3)c2)cnc1N)c1c(Cl)ccc(F)c1Cl > 1000 nM

----------
# Experiment summary: Oral bioavailability in rat at 10 mg/kg
# Format: ADME, organism-based
# Measurement parameters: in vivo
Measurement kind: bioavailability (%)
One number for each entry, in %.

Please look at this compound and report its bioavailability: C[C@@H](Sc1cc(-c2cnn(C3CCNCC3)c2)cnc1N)c1c(Cl)ccc(F)c1Cl 12.8

----------
# Measured on: Mast/stem cell growth factor receptor Kit (Homo sapiens)
pIC50: −log10 of the molar value.
Measurement kind: pIC50

State its pIC50 for this compound: C[C@@H](Sc1cc(-c2cnn(C3CCNCC3)c2)cnc1N)c1c(Cl)ccc(F)c1Cl < 6.00

----------
# Measured on: Hepatocyte growth factor receptor (Homo sapiens, UniProt P08581)
# Sequence (P08581 whole entry): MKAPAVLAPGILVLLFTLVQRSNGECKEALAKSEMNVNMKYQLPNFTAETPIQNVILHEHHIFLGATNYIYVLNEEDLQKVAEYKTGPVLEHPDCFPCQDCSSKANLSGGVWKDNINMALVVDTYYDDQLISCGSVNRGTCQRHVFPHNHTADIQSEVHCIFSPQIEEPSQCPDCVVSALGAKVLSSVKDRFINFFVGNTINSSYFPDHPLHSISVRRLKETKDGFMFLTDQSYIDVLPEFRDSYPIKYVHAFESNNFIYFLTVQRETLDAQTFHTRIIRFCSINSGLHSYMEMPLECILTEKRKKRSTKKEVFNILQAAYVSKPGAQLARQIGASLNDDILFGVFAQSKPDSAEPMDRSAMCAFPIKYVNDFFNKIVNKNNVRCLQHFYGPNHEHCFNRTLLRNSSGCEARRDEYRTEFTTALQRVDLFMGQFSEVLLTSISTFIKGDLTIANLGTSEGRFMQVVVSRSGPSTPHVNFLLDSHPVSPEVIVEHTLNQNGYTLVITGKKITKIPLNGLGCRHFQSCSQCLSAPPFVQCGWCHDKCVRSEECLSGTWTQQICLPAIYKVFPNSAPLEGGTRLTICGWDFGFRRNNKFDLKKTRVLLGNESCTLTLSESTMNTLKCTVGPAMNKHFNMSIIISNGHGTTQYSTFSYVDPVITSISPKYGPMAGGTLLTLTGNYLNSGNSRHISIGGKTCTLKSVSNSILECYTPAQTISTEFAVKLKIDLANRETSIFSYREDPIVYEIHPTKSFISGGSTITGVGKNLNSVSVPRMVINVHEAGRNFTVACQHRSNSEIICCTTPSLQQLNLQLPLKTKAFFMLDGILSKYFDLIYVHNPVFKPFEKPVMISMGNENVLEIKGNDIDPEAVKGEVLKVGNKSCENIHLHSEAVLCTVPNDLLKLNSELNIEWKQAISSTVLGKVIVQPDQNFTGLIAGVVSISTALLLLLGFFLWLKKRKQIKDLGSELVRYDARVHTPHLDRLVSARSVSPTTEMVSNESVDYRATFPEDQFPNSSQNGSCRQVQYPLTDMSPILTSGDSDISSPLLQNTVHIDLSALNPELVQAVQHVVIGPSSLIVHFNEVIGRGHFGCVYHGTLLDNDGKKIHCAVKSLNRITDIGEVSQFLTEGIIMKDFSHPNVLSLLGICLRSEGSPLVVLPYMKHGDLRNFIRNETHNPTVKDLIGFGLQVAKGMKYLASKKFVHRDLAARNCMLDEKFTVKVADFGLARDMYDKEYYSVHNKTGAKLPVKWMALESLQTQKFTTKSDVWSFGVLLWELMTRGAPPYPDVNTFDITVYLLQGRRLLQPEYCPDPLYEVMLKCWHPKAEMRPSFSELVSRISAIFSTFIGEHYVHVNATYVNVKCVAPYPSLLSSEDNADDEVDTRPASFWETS
# Experiment summary: Inhibition of c-Met (unknown origin) using poly (Glu, Tyr) 4:1 as substrate at 10 uM after 60 mins by ELISA
Measurement kind: IC50

Identify measured IC50 corresponding to CC(NS(=O)(=O)c1cc(-c2cnn(C3CCNCC3)c2)cnc1N)c1c(Cl)ccc(F)c1Cl (stereo unspecified) > 10 µM

----------
# Measured on: Hepatocyte growth factor receptor (Homo sapiens)
# Experiment summary: Inhibition of c-Met (unknown origin) using poly (Glu, Tyr) 4:1 as substrate after 60 mins by ELISA
Measurement kind: IC50 (nM)
Give bare numbers, in nM.

> print(dat)
                                   compound  measurement.kind  val
1  C[C@@H](Sc1cc(-c2cnn(C3CCNCC3)c2)cnc1N)c1c(Cl)ccc(F)c1Cl              IC50  7.7
2  C[C@H](Sc1cc(-c2cnn(C3CCNCC3)c2)cnc1N)c1c(Cl)ccc(F)c1Cl              IC50  171

Now examine the next entry.
Hello, please tell me recorded IC50 for this one: CC(Sc1cc(-c2cnn(C3CCNCC3)c2)cnc1N)c1c(Cl)ccc(F)c1Cl (racemic) 16.4

----------
# Experiment summary: Volume of distribution in rat at 2 mg/kg, iv and 10 mg/kg, po
# Assay type: ADME, organism-based
# Measurement parameters: in vivo
Measurement kind: Vd (L/kg)
Give bare numbers, in L/kg.

Supply reported Vd belonging to this compound: C[C@@H](Sc1cc(-c2cnn(C3CCNCC3)c2)cnc1N)c1c(Cl)ccc(F)c1Cl 20

----------
# Measured on: UniProtKB P16234
Measurement kind: IC50

Enter measured IC50, system UniProtKB P16234, for the compound shown: C[C@@H](Sc1cc(-c2cnn(C3CCNCC3)c2)cnc1N)c1c(Cl)ccc(F)c1Cl > 1000 nM

----------
# Measured on: Epidermal growth factor receptor (Homo sapiens, UniProt P00533)
# Sequence (P00533 whole entry): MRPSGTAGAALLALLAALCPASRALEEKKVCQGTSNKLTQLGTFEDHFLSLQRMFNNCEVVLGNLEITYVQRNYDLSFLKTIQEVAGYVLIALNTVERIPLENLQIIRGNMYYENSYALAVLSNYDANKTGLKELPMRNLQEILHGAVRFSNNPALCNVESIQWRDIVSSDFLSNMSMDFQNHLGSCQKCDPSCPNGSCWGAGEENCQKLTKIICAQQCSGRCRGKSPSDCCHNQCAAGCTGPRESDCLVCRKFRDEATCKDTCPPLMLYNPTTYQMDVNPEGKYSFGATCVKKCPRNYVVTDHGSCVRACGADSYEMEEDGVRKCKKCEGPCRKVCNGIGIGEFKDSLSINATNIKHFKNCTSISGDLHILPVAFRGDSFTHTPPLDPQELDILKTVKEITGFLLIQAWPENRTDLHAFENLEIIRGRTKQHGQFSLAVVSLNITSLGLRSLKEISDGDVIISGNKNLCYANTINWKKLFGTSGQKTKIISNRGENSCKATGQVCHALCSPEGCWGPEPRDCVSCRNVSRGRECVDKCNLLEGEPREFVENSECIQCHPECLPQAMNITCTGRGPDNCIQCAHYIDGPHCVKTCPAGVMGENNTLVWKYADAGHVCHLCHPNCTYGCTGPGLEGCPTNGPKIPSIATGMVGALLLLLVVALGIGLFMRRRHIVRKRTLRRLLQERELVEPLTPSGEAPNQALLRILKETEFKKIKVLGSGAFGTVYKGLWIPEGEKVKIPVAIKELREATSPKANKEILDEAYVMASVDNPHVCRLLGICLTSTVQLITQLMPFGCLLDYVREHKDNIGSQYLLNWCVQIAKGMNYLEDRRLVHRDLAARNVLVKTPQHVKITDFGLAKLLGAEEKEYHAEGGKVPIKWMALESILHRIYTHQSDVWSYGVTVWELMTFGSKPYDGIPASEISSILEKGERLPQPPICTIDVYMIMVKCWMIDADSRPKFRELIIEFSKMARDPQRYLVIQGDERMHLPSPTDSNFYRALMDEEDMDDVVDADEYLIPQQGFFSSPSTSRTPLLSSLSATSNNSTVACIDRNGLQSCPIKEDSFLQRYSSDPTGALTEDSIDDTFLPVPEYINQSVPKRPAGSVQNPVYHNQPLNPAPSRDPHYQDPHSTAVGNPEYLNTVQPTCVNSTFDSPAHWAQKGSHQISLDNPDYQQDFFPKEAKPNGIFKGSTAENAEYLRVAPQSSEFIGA
# Experiment summary: Inhibition of EGFR (unknown origin) using poly (Glu, Tyr) 4:1 as substrate after 60 mins by ELISA
pIC50: −log10 of the molar value.
Measurement kind: pIC50

Provide pIC50 value for the following compound: C[C@@H](Sc1cc(-c2cnn(C3CCNCC3)c2)cnc1N)c1c(Cl)ccc(F)c1Cl < 6.00
